Where these numbers come from: patent US20260193366A1

Molecular target: T1, hIL-4Rα on cells (human, UniProt P24394 26-825)
T1 sequence: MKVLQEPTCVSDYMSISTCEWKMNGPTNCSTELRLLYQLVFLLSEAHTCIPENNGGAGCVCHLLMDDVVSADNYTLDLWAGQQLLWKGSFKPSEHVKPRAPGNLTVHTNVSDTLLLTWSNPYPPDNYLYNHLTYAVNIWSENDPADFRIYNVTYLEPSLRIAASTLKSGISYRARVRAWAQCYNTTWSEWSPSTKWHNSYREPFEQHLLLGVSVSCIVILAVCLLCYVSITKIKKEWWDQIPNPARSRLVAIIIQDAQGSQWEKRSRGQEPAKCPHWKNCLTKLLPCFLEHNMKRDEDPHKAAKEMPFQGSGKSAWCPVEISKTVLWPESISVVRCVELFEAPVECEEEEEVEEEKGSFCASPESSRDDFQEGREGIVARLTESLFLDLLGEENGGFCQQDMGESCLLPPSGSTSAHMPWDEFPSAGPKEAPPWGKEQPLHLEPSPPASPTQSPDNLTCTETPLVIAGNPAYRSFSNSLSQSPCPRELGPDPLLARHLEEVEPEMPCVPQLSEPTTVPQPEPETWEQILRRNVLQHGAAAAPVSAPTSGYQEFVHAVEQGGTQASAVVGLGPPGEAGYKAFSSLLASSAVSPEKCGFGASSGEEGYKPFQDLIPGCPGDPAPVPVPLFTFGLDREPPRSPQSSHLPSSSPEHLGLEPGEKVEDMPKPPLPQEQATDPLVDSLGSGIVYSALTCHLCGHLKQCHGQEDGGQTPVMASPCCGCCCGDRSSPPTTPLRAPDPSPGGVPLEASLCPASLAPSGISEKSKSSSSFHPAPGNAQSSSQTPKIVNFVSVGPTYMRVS
Assay: cell-based or functional assay
Give Relative Inhibition of IL-13 induced pSTAT6 IC50 for every item shown.

Would you kindly share the measured Relative Inhibition of IL-13 induced pSTAT6 IC50 for Construct 3 (mAb412) (antibody, IgG4, V domains shown, VH/VL only) VH: EVQLVESGGGLEQPGGSLRLSCAGSGFTFRDFAMTWVRQAPGKGLEWVSSISGSGSSTYYADSVKGRFTISRDNSKNTLYLQMNSLRAEDTAVYYCAKDRLSITVRPRYYGLDVWGQGTTVTVSS VL: DIVMTQSPLSLPVTPGEPASISCRSSQSLLYSIGYNYVDWYLQKSGQSPQLLIYLGNKRASGVPDRFSGSGSGTDFTLKISRVEAEDVGFYYCMQALTTPYTFGQGTKLEIK ?
0.66 relative to dupilumab

So what does the record say about Relative Inhibition of IL-13 induced pSTAT6 IC50 for Construct 30 (mAb439) (antibody, IgG4, V domains shown, VH/VL only) VH: EVQLVESGGGLEQPGGSLRLSCAGSGFTFRDYAMTWVRQAPGKGLEWVSSISGSGGNTYYADSVKGRFTISRDNSKNTLYLQMNSLRAEDTAVYYCAKDRLSITIRPRYYGLDVWGQGTTVTVSS VL: DIVMTQSPLSLPVTPGEPASISCRSSQSLLYSNRNNYLDWYLQKSGQSPQLLIYSASIRASGVPDRFSGSGSGTDFTLKISRVEAEDVGFYYCMQAFQAPYTFGQGTKLEIK ?
0.781 relative to dupilumab

Quick check: Relative Inhibition of IL-13 induced pSTAT6 IC50 of Construct 11 (mAb420) (antibody, IgG4, V domains shown, VH/VL only) VH: EVQLVESGGGLEQPGGSLRLSCAGSGFTFRDFAMTWVRQAPGKGLEWVSSISGDGSNTYYADSVKGRFTISRDNSKNTLYLQMNSLRAEDTAVYYCAKDRLSKTIRPRYYGLDVWGQGTTVTVSS VL: DIVMTQSPLSLPVTPGEPASISCRSSQSVLYSIGYNYVDWYLQKSGQSPQLLIYLGNKRASGVPDRFSGSGSGTDFTLKISRVEAEDVGFYYCMQSLQTPYTFGQGTKLEIK ?
0.924 relative to dupilumab

Give the measured Relative Inhibition of IL-13 induced pSTAT6 IC50 of Construct 19 (mAb427) (antibody, IgG4, V domains shown, VH/VL only) VH: EVQLVESGGGLEQPGGSLRLSCAGSGFTFRTYAMTWVRQAPGKGLEWVSSISGSGDNTYYADSVKGRFTISRDNSKNTLYLQMNSLRAEDTAVYYCAKDRVSITIRPRYYGLDVWGQGTTVTVSS VL: DIVMTQSPLSLPVTPGEPASISCTSSQSLLYSIGYNYVDWYLQKSGQSPQLLIYLGNKRASGVPDRFSGSGSGTDFTLKISRVEAEDVGFYYCMQALGSPYTFGQGTKLEIK .
0.885 relative to dupilumab

Fill in: Relative Inhibition of IL-13 induced pSTAT6 IC50 of Construct 42 (mAb481) (antibody, IgG4, V domains shown, VH/VL only) VH: EVQLVESGGGLEQPGGSLRLSCAGSGFTFRTYAMTWVRQAPGKGLEWVSSISGDGSNTYYADSVKGRFTISRDNSKNTLYLQMNSLRAEDTAVYYCAKDRVSITIRPRYYGLDVWGQGTTVTVSS VL: DIVMTQSPLSLPVTPGEPASISCTASQSLLYSIGYNYVDWYLQKSGQSPQLLIYLGNKRASGVPDRFSGSGSGTDFTLKISRVEAEDVGFYYCMQALTTPYTFGQGTKLEIK is ___
2.78 relative to dupilumab
